# System: PSMA^+ PC-3 PIP tumors
# assay-text: MicroPET/CT imaging of mice transplanted with prostate cancer cell lines
# Format: in vivo, nude mouse
# study-conditions: 30 min after injection
Quick reference for intake of mouse organ: Tumor (PIP) among some molecules
readout-label: intake of mouse organ: Tumor (PIP) (% ID/g)

{"columns": ["molecule", "measured"],
 "data": [
  ["O=C(O)CCC(NC(=O)NC(CCCCN(CC(=O)O)C(=O)COCCOCCNC(=O)CN1CCN2CCN3CCN(CC1)CC(=O)[O][68Ga]([O]C(=O)C2)[O]C(=O)C3)C(=O)O)C(=O)O (stereo not shown) [[^68Ga]1e]", 4.08],
  ["O=C(O)CCC(NC(=O)NC(CCCCN(CC(=O)O)C(=O)COCCOCCNC(=O)C(CCCCNC(=O)CCCc1ccc(I)cc1)NC(=O)CN1CCN2CCN3CCN(CC1)CC(=O)[O][68Ga]([O]C(=O)C2)[O]C(=O)C3)C(=O)O)C(=O)O (stereo not shown) [[^68Ga]1h]", 5.00],
  ["Cc1ccc(CCCC(=O)NCCCCC(NC(=O)CN2CCN3CCN4CCN(CC2)CC(=O)[O][68Ga]([O]C(=O)C3)[O]C(=O)C4)C(=O)NCCOCCOCC(=O)N(CCCCC(NC(=O)NC(CCC(=O)O)C(=O)O)C(=O)O)CC(=O)O)cc1 (stereo not shown) [[^68Ga]1g]", 5.43],
  ["O=C(O)CCC(NC(=O)NC(CCCCN(CC(=O)O)C(=O)COCCNC(=O)C(CCCCNC(=O)CCCc1ccc(I)cc1)NC(=O)CN1CCN2CCN3CCN(CC1)CC(=O)[O][68Ga]([O]C(=O)C2)[O]C(=O)C3)C(=O)O)C(=O)O (stereo not shown) [[^68Ga]1k]", 3.94]
]}

---

Quick reference for intake of mouse organ: Bladder among some compounds
# Test system: PSMA^+ PC-3 PIP tumors
# assay-text: MicroPET/CT imaging of mice transplanted with prostate cancer cell lines
# Type: in vivo, nude mouse
# study-conditions: 150 min after injection
readout-label: intake of mouse organ: Bladder

{"columns": ["compound", "measured"],
 "data": [
  ["Cc1ccc(CCCC(=O)NCCCCC(NC(=O)CN2CCN3CCN4CCN(CC2)CC(=O)[O][68Ga]([O]C(=O)C3)[O]C(=O)C4)C(=O)NCCOCCOCC(=O)N(CCCCC(NC(=O)NC(CCC(=O)O)C(=O)O)C(=O)O)CC(=O)O)cc1 (stereo not shown) [[^68Ga]1g]", "42.3 ± 41.58 % ID/g"],
  ["O=C(O)CCC(NC(=O)NC(CCCCN(CC(=O)O)C(=O)COCCOCCNC(=O)CN1CCN2CCN3CCN(CC1)CC(=O)[O][68Ga]([O]C(=O)C2)[O]C(=O)C3)C(=O)O)C(=O)O (stereo not shown) [[^68Ga]1e]", "31.85 ± 35.57 % ID/g"],
  ["O=C(O)CCC(NC(=O)NC(CCCCN(CC(=O)O)C(=O)COCCNC(=O)C(CCCCNC(=O)CCCc1ccc(I)cc1)NC(=O)CN1CCN2CCN3CCN(CC1)CC(=O)[O][68Ga]([O]C(=O)C2)[O]C(=O)C3)C(=O)O)C(=O)O (stereo not shown) [[^68Ga]1k]", "18.10 ± 6.51 % ID/g"],
  ["O=C(O)CCC(NC(=O)NC(CCCCN(CC(=O)O)C(=O)COCCOCCNC(=O)C(CCCCNC(=O)CCCc1ccc(I)cc1)NC(=O)CN1CCN2CCN3CCN(CC1)CC(=O)[O][68Ga]([O]C(=O)C2)[O]C(=O)C3)C(=O)O)C(=O)O (stereo not shown) [[^68Ga]1h]", "19.45 ± 12.23 % ID/g"]
]}
